Test system: Salmonella typhimurium strains TA 98, TA 100, TA 1535, TA 1537, TA 1538, TA 1978
PROTOCOL SUMMARY: Ames assay (spot test), revertant colonies
Format: cell-based
EXPERIMENTAL CONTEXT: strain TA 1538, -S9
Provide the reported Mean number of revertant colonies per plate, TA 1538 -S9 of each item.

Lab book: Mean number of revertant colonies per plate, TA 1538 -S9 of Clc1ccc(N2CC2c2ccccc2Cl)cc1 (stereo not shown) noted as 13.3 colonies per plate

The recorded Mean number of revertant colonies per plate, TA 1538 -S9 for CC(=O)Nc1ccc2c(c1)Cc1ccccc1-2 [AAF, 2-acetylaminofluorene, reference compound] is 14.7 colonies per plate

Clc1ccccc1C1CN1c1ccc(Br)cc1 (stereo not shown) yielded Mean number of revertant colonies per plate, TA 1538 -S9 of 12.0 colonies per plate

Clc1ccc(N2CC2c2ccccc2Cl)cc1Cl (stereo not shown) yielded Mean number of revertant colonies per plate, TA 1538 -S9 of 12.0 colonies per plate
